The compounds listed here are annotated with their composite z-score.
biological target: Calmodulin-1 (Homo sapiens) (UniProt P0DP23); test: CALM1 binders on microarrays, EGTA buffer, profiling panel, biochemical, small-molecule microarray, Cy5-labelled CALM1 (AID 1111); conditions: Cy5-CALM1 binding fluorescence, higher = more signal;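 further: labelled calmodulin applied in Tris saline Tween buffer holding calcium plus EGTA and DTT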
Keep the answer to the number alone.

compound	parameter measured	result number
COCCOC(=O)N1C(=O)[C@@]2(c3cc(C#Cc4ccc(OC)cc4)ccc31)[C@H](C(N)=O)[C@H]1C(=O)O[C@H](c3ccccc3)[C@H](c3ccccc3)N1[C@@H]2c1ccccc1OCCO	composite z-score	2.22
COC(=O)[C@@]1(Cc2ccc(F)cc2)[C@H]2c3cc(C(=O)N4CCCC4)n(Cc4cc(C)n(C)n4)c3C[C@H]2CN1C(=O)c1ccccc1	composite z-score	2.36

Reading of composite z-score for Cc1ccc(C(C)CC(O)C2C=CC3C(=O)N(C)C(=O)C3N2NC(=O)OC(C)(C)C)o1 (stereo not drawn) with Calmodulin-1 (Homo sapiens) (UniProt P0DP23): 1.73

###

assay: inhibitors of hydroxyurea-induced Chk1 phosphorylation, primary screen, imaging, HeLa, phospho-Chk1 antibody, percent positive cells (AID 1186); settings: hydroxyurea-induced phospho-Chk1 immunofluorescence imaging, higher = more signal
parameter measured: z-score
Provide a numeric answer; units are not to be included.

Known z-score results, listed for orientation:
compound	result number
CCCC[C@H]1OB(O)C[C@H]2C1=C(COc1ccccc1)C[C@H]1C(=O)N(C)C(=O)[C@H]12	-0.267
Cc1ccc(S[C@]2(C(=O)NC3CC3)CC(=O)N(C3Cc4ccccc4C3)[C@@H]2c2ccc(CO)cc2)cc1	-0.671
CCCCC(=C=CC[C@@H](O)c1ccccc1OCCO)CCO	0.525
CC(C)C(CO)N1C(=O)[C@@H]2[C@H]3C(=O)OCC=C[C@H]3OC23C=CCN(C(C)C)C(=O)[C@@H]13 (stereo not given in full)	0.475
COc1cc2c(cc1OC)CN(C(=O)[C@@H]1[C@H]3C(=O)O[C@H](c4ccccc4)[C@H](c4ccccc4)N3[C@H](c3ccc(O)cc3)[C@@]13C(=O)Nc1ccc(C#CC4(O)CCCCCC4)cc13)CC2	0.263

Recorded result, `COc1ccc(C(=O)Nc2ccc(CN3C(=O)[C@@]4(O[C@@H](CCn5cc([C@H](O)c6ccccc6)nn5)[C@H]([Si](C)(C)c5ccc(OC)cc5)[C@H]4C)c4ccccc43)cc2)cc1` , z-score: -0.0665

// sample `COc1cc2c(cc1OC)CN(C(=O)[C@H]1[C@@H]3C(=O)O[C@@H](c4ccccc4)[C@@H](c4ccccc4)N3[C@@H](c3ccc(O)cc3)[C@]13C(=O)Nc1ccc(C#CCNC(N)=O)cc13)CC2` , its z-score was -0.192

###

molecular target: Alpha-bungarotoxin (Bungarus multicinctus); test: alpha-bungarotoxin binders on microarray, profiling panel, artefact control for SMM control protein annotation, biochemical, small-molecule microarray, Alexa647 label, 635/667 nm fluorescence (AID 1117); conditions: alpha-BTX-A647 binding fluorescence, higher = more signal
Listing: composite z-score of selected molecules
Simply state the number, no unit and no words.

molecule	study target	composite z-score
C=C(/C(=C/C[C@@H](OC(C)=O)c1ccc(OCCO)cc1)c1cnc2ccccc2c1)C(C)C	Alpha-bungarotoxin (Bungarus multicinctus)	0.249
C=CC[C@]12N=C(c3ccc(OCCCO)cc3)O[C@H]1c1ccccc1N(Cc1ccccc1)C2=O	Alpha-bungarotoxin (Bungarus multicinctus)	1.51
COCCOC(=O)N1C(=O)[C@@]2(c3cc(C#Cc4ccc(OC)cc4)ccc31)[C@H](C(=O)N1CCCCCCC1)[C@H]1C(=O)O[C@H](c3ccccc3)[C@H](c3ccccc3)N1[C@@H]2c1ccc(OCCO)cc1	Alpha-bungarotoxin (Bungarus multicinctus)	1.14
C=CCC(OC(C)=O)[C@@H]1[C@@H](N(Cc2cccc3ccccc23)C(=O)c2ccc(-c3ccccc3)cc2)c2cc(OCCCO)ccc2N1C(=O)Cc1ccc(OC)cc1 (some centres not stated)	Alpha-bungarotoxin (Bungarus multicinctus)	0.373
CC1CC/C=C\[C@H]2OC34C=CCN(C(C)(C)C)C(=O)[C@H]3N(CCCCCCO)C(=O)[C@@H]4C2C(=O)O1 (some centres not stated)	Alpha-bungarotoxin (Bungarus multicinctus)	-1.06
COc1cc(OC)c(C(O)C2C=CC3C(=O)NC(=O)C3N2Nc2ccc(Cl)cc2Cl)cc1Br (configuration not stated)	Alpha-bungarotoxin (Bungarus multicinctus)	1.27

Now for another entry.
Noted for `COC(=O)[C@@]1(Cc2ccc(F)cc2)[C@H]2c3cc(C(=O)N4CCCC4)n(Cc4cc(C)n(C)n4)c3C[C@H]2CN1C(=O)c1ccccc1` : its composite z-score reads 0.251

###

molecular target: Dickkopf-related protein 1 (Homo sapiens) (UniProt O94907); experiment: DKK1 binders on small-molecule microarrays, primary screen, biochemical, small-molecule microarray, 635 nm fluorescence scan (AID 1106); settings: DKK1 binding, higher = more signal;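 further: score merges emission near 667 nm with signal to noise over three replicate slides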
Sequence (O94907 whole entry, looked up): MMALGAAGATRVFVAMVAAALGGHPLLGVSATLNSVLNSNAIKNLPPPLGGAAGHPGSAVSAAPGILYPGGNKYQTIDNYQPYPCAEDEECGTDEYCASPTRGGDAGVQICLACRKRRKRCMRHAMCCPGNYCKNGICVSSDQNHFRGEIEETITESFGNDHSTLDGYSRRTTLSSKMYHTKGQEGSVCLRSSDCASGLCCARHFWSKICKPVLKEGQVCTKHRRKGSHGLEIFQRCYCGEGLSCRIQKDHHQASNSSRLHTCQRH
parameter measured: composite z-score
Write the number on its own, no unit after it.

# count of solved cases: 5
molecule	result number
COC(=O)[C@@]1(Cc2ccc(F)cc2)[C@@H]2[C@@H](CC(=O)[C@H]2CC(=O)C(=O)N(C)C)CN1C(=O)c1ccccc1	-0.598
CC(C)(C)OC(=O)CC[C@@]12N=C(c3ccc(OCCCO)cc3)O[C@@H]1c1ccccc1N(CCS(=O)(=O)c1ccccc1)C2=O	0.681
CCCCC=C[C@@H](NC(=O)Oc1cccc(C(F)(F)F)c1)c1ccccc1	-0.432
COCCOC(=O)N1C(=O)[C@@]2(c3cc(C#CCNC(N)=O)ccc31)[C@H](C(=O)NC[C@H](O)c1ccccc1)[C@H]1C(=O)O[C@H](c3ccccc3)[C@H](c3ccccc3)N1[C@@H]2c1ccccc1OCCO	0.711
C=CCN1C(=O)[C@]2(O[C@H](CCO)[C@@H]([Si](C)(C)c3ccc(OC)cc3)[C@@H]2C)c2cc(N3C(=O)c4cccc5cccc3c45)ccc21	-0.255

get_value(item= `CO[C@H]1O[C@H](CO)[C@@H](OC(=O)Nc2ccc(Br)cc2)[C@H](OC(=O)c2cc3ccccc3[nH]2)[C@H]1OC(=O)c1cc2ccccc2[nH]1` , readout=composite z-score) returns 0.0104

Record `[N-]=[N+]=NCc1ccccc1[C@H]1OC(c2ccc(OCCCO)cc2)=N[C@@]1(Cc1ccccc1)C(=O)NCc1ccccc1` . Reported composite z-score: -0.238

Entry `COCCOC(=O)N1C(=O)[C@@]2(c3cc(C#CC4=CCCCC4)ccc31)[C@H](c1ccc(O)cc1)N1[C@H](c3ccccc3)[C@H](c3ccccc3)OC(=O)[C@H]1[C@@H]2C(N)=O` — recorded composite z-score = 0.639

###

system: XIP peptide (Xip251-270) binding; assay: small-molecule binders of XIP peptide, primary screen, biochemical, small-molecule microarray, fluorescence 635/667 nm, 0.1 µg/mL protein (AID 1182); conditions: fluorescent protein binding, 635 nm, higher = more signal, called active from +8 up or from −8 down
# composite z-score annotations
Respond numerically, and do not add a unit to the figure.

Answered cases to consult:
molecule	composite z-score
COCCOC(=O)N1C(=O)[C@@]2(c3cc(C#Cc4ccc(OC)cc4)ccc31)[C@H](C(=O)N1CCCCCCC1)[C@H]1C(=O)O[C@H](c3ccccc3)[C@H](c3ccccc3)N1[C@@H]2c1ccc(OCCO)cc1	2.79
C=C(CCCC)C(=O)CC[C@H](OC(C)=O)c1cccc(OCCO)c1	0.162
CCCCC=C[C@@H](NC(=O)Oc1cccc(C(F)(F)F)c1)c1ccccc1	-0.361
CC1CC/C=C\[C@H]2OC34C=CCN(C(C)(C)C)C(=O)[C@H]3N(CCCCCCO)C(=O)[C@@H]4C2C(=O)O1 (stereo partly drawn)	1.87
CCOC(=O)C[C@H]1[C@H](OC(=O)Cc2ccc3c(c2)OCO3)[C@@H](NC(=O)c2ccc(-c3ccccc3)cc2)c2cc(OCCCO)ccc2N1C(=O)Cc1ccc(OC)cc1	0.784

// molecule C=CCC(OC(C)=O)[C@@H]1[C@@H](N(Cc2ccc(-c3cccc(C(F)(F)F)c3)o2)C(=O)Cc2ccc(F)cc2)c2cc(OCCCO)ccc2N1C(=O)Cc1ccc(OC)cc1 (stereo partly drawn) , assay XIP peptide (Xip251-270) binding, composite z-score value: 0.664

Measured on XIP peptide (Xip251-270) binding, `CN(C)CCCNC(=O)[C@@]1(C)c2ccccc2C(=O)N(Cc2cc(F)cc(C(F)(F)F)c2)[C@H]1c1ccc(CO)cc1` has a documented composite z-score of -0.55

###

experiment: small-molecule microarray binders of probe aShh, primary screen, biochemical, biotinylated probe, 635/667 nm fluorescence (AID 1114); details: higher = more signal;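 further: probe is biotin-labelled aShh protein from a stem cell growth factor screen; measures binding of labelled protein to compounds printed on the slide; score merges feature fluorescence at 667 nm with signal-to-noise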
The compounds listed here are annotated with their composite z-score.
I only need the number, thanks.

compound	composite z-score
COCCOC(=O)N1C(=O)[C@@]2(c3ccccc31)[C@H](c1ccc(O)cc1)N1[C@H](c3ccccc3)[C@H](c3ccccc3)OC(=O)[C@H]1[C@@H]2C(=O)NC[C@H](O)c1ccccc1	0.289
COc1ccc(C(=O)Nc2ccc(CN3C(=O)[C@@]4(O[C@@H](CC(=O)N5CCC[C@H]5CO)[C@H]([Si](C)(C)c5ccc(OC)cc5)[C@H]4C)c4ccccc43)cc2)cc1	0.0639
[N-]=[N+]=NCc1ccccc1[C@@H]1OC(c2ccc(OCCCO)cc2)=N[C@]1(CCS(=O)(=O)c1ccccc1)C(=O)NCCN1CCOCC1	0.323
CN(C)CCCCCCNC(=O)[C@@H]1C[C@@H]2C(=O)N[C@@H](CCCCN)C(=O)N2[C@@H]1c1cccc(OCCO)c1	1.7
CCCCCN1CC=CC23O[C@@H]4/C=C\CCCOC(=O)C4[C@H]2C(=O)N(CCCO)[C@@H]3C1=O (some centres undefined)	-0.214

// field: composite z-score; key: `[N-]=[N+]=NCc1ccccc1[C@@H]1OC(c2ccc(OCCCO)cc2)=N[C@]1(CCS(=O)(=O)c1ccccc1)C(=O)NCc1ccccc1` ; value = 0.487

Kindly note the recorded composite z-score for `O=C1c2ccccc2[C@@]2(Cc3ccccc3N(CC(F)(F)F)C2=O)[C@H](c2ccc(CO)cc2)N1Cc1ccccc1Cl` , which is -0.17
